Tested on: ATP;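 also: ATP exposure 15 min at 22 °C before imaging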
Assay: switch fluorescence ratio, 500 uM ATP over buffer (Cy3 cluster intensity, sum of 5 cycles each) (fold (ratio)); higher = stronger signal-on switching upon ATP binding; sequences stand for … in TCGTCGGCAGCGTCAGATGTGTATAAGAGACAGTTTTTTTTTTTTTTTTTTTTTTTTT…TC
Details: aptamer strand: ATP DNA aptamer (quencher-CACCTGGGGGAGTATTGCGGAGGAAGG + anchor), 100 nM annealed; ATP concentration: 500 uM
Can you tell me switch fluorescence ratio for the items I'm about to list?
Lab note: write the figure by itself, no unit.

## Input What is its switch fluorescence ratio for ATP? Entry: GAGTAAATTG
## Output 0.987

## Input Would you mind doing AGTTAGTATG as well?
## Output 0.979

## Input Would you mind doing TCTATGCGGG as well?
## Output 1.02

## Input Would you mind doing TGACAGTCGT as well?
## Output 0.977

## Input Would you mind doing GAGTTGGAAG as well?
## Output 1.01

## Input Would you mind doing TGCGACAGTT as well?
## Output 1.01

## Input Would you mind doing GGGAGGGTGC as well?
## Output 1.02

## Input Would you mind doing ACGGTCGTTA as well?
## Output 0.975

## Input Would you mind doing ATATCGCTGA as well?
## Output 0.987

## Input Would you mind doing AAAGCTGGGA as well?
## Output 1.01

## Input Would you mind doing CAGTTTTCGG as well?
## Output 1

## Input Would you mind doing TTATGAGGGG as well?
## Output 1.01

## Input Would you mind doing TTTCGGTCAT as well?
## Output 1.02

## Input Would you mind doing GCGGGTGACC as well?
## Output 1.02

## Input Would you mind doing GCAAAGGGCT as well?
## Output 1

## Input Would you mind doing CGTTTAGGGG as well?
## Output 0.977

## Input Would you mind doing TTGATATCTA as well?
## Output 0.982

## Input Would you mind doing CAGAGTTAAT as well?
## Output 0.993

## Input Would you mind doing CTCGGGTGGT as well?
## Output 0.997

## Input Would you mind doing GCTACAGCTT as well?
## Output 1.02

## Input Would you mind doing CGGGGGTAAG as well?
## Output 0.991

## Input Would you mind doing TTCAAATGAG as well?
## Output 0.98

## Input Would you mind doing GGGGTTATCA as well?
## Output 0.99

## Input Would you mind doing TTTTCAACTA as well?
## Output 0.995

## Input Would you mind doing AAAAAGTTTG as well?
## Output 1

## Input Would you mind doing ATTGGCCATC as well?
## Output 0.997

## Input Would you mind doing ATGGAATTGT as well?
## Output 0.986

## Input Would you mind doing ACAAAGGTCG as well?
## Output 1.01

## Input Would you mind doing CGGGGTTGGG as well?
## Output 1.01

## Input Would you mind doing GGTGTTTTG as well?
## Output 0.985

## Input Would you mind doing CAAAAGGGGA as well?
## Output 0.984

## Input Would you mind doing GTGGTTTGGC as well?
## Output 1.01

## Input Would you mind doing TTGCTGGGGT as well?
## Output 1.01
